Recorded growth, one value per entry.
System: HOP-62 NSCLC
Assay: NCI-60 one-dose screen, 48 h (100 = growth as untreated, 0 = no growth, -100 = all killed)
Conditions: 10 µM unless noted
This is part of a sample that, as a whole, favours compounds with a hit. Of some 83,000 tested, about 20% had one in any assay.
reportedMetric: growth (%)

molecule="COC12CC(=O)C(C(C)=O)=C(O)C1(C)c1c(O)c(C)c(O)c(C(C)=O)c1O2 (stereo unspecified)" reportedmetric=growth recordedmeasurement=86
molecule=Cc1nc2sccn2c1-c1csc(Nc2ccccc2Cl)n1 reportedmetric=growth recordedmeasurement=54.2
molecule=COc1ccc(/C=C/c2nc(N3CCOCC3)c3cc(F)c(F)cc3n2)cc1OC reportedmetric=growth recordedmeasurement=86.8
molecule=COc1cc(C(=O)CCCl)ccc1O reportedmetric=growth recordedmeasurement=112
molecule=O=C(O)c1ccc(-n2c(=O)c3ccccc3c3ccccc3c2=O)cc1 reportedmetric=growth recordedmeasurement=102
molecule=CCN(CC)CCCNc1nc(C)cc(Nc2ccc3nc(C)cc(N)c3c2)n1 reportedmetric=growth recordedmeasurement=81
molecule=Nc1ccc(S(=O)(=O)c2ccc(Cl)cc2)cc1 reportedmetric=growth recordedmeasurement=97.8
molecule=COc1cc(OC)c(C(=O)/C=C/c2ccc(C#N)cc2)c(OC)c1 reportedmetric=growth recordedmeasurement=13.6
molecule=Cc1oc2nc[nH]c(=O)c2c1C(=O)/C=C/c1ccc(Cl)cc1Cl reportedmetric=growth recordedmeasurement=92.6
molecule=CCOC(=O)CC/C(C)=N\Nc1ccc([N+](=O)[O-])cc1 reportedmetric=growth recordedmeasurement=63.2
molecule="CN(C)C1CCC(NC2=CC(=O)C=CC2=O)CC1 (stereo unspecified)" reportedmetric=growth recordedmeasurement=116
molecule=O=C1CCC(=O)N1Cc1ccccc1 reportedmetric=growth recordedmeasurement=107
molecule=CCCOC(=O)C1(O)CCCC1 reportedmetric=growth recordedmeasurement=109
molecule="Cc1ccc(C2=NN(c3ccc(S(=O)(=O)NC(=O)NCc4ccccc4)cc3)C(c3ccc(N(C)C)cc3)C2)c(C)c1 (stereo unspecified)" reportedmetric=growth recordedmeasurement=74.9
molecule=CCCCCc1c(C)[nH]c(/C=c2\[nH]/c(=C3/C=c4ccccc4=N3)cc2OC)c1C reportedmetric=growth recordedmeasurement=-56.7
molecule="COC(=O)[C@H]1[C@H](OC)[C@@H](OC(=O)/C=C/c2ccncc2)CC2CN3CCc4c([nH]c5cc(OC)ccc45)[C@@H]3C[C@@H]21 (stereo partly specified)" reportedmetric=growth recordedmeasurement=78.5
molecule="O=C1NC(Cc2c[nH]c3ccccc23)C(=O)N1Cc1ccc(Cl)cc1 (stereo unspecified)" reportedmetric=growth recordedmeasurement=103
molecule=O=S(=O)(NCCNc1nccc(-c2c(-c3ccccc3)nc3sccn23)n1)c1ccc(O)cc1 reportedmetric=growth recordedmeasurement=58.9
molecule=Cn1c(=O)c2c(nc3n2CCN(CCc2ccc(OCCN4CCOCC4)cc2)C3)n(C)c1=O reportedmetric=growth recordedmeasurement=106
molecule=Cc1cc(Nc2nc(C(=O)Nc3ccccc3)nc3ccccc23)n[nH]1 reportedmetric=growth recordedmeasurement=60
molecule=O=C(/C=C/CN1CCOCC1)Nc1cc2c(Nc3ccc(F)c(Cl)c3F)ncnc2cc1OCCOC(F)F reportedmetric=growth recordedmeasurement=51.2
molecule="O=C(CC(O)c1ccncc1)c1ccccc1 (stereo unspecified)" reportedmetric=growth recordedmeasurement=22.9
molecule="CCC(c1ccc(OC)cc1)C(CC)c1ccc(OCC[N+](C)(C)C)cc1 (stereo unspecified)" reportedmetric=growth recordedmeasurement=73.9
molecule=CCOC(=O)c1cc(/C(=N\O)c2cc(OC)c(OC)c(OC)c2)n2c(C)cccc12 reportedmetric=growth recordedmeasurement=36.2
molecule="CC(C(=O)n1cc(-c2ccccc2)c(-c2ccccc2)c1)c1ccccc1 (stereo unspecified)" reportedmetric=growth recordedmeasurement=95.4
molecule=O=S(=O)(NCCCNc1nccc(-c2c(-c3ccc(O)cc3)nc3sccn23)n1)c1ccc(F)cc1 reportedmetric=growth recordedmeasurement=10
molecule=CCC#CC[C@H]1C/C=C2/C(=O)C=C[C@@H]2C/C=C\CCCC(=O)O1 reportedmetric=growth recordedmeasurement=-3.46
molecule=COc1ccc(/C=C/C(=O)c2cccc(B(O)O)c2)cc1O reportedmetric=growth recordedmeasurement=40.5
molecule="COc1cc(C2CC(c3c(C)[n+]([O-])c4ccccc4[n+]3[O-])=NN2)cc(OC)c1OC (stereo unspecified)" reportedmetric=growth recordedmeasurement=106
molecule="O=C1NCC(c2cc3ccccc3[nH]c2=O)Nc2ccccc21 (stereo unspecified)" reportedmetric=growth recordedmeasurement=90.6
molecule="COc1ccc(/C=C2\\CCCC3=C2NC(C)=NC3c2ccc(OC)c(OC)c2)cc1OC (stereo unspecified)" reportedmetric=growth recordedmeasurement=32.1
molecule=COc1ccc(C(=O)N2CCN(C(=O)c3cc(OC)c(OC)c(OC)c3)CC2)cc1OCCCCOc1cc2c(cc1OC)C(=O)N1CCC[C@H]1C=N2 reportedmetric=growth recordedmeasurement=105
molecule=CC(=O)Nc1nc(C(=O)N2N=C(C)/C(=C/c3ccc(Cl)cc3)C2=O)cs1 reportedmetric=growth recordedmeasurement=97
molecule=O=C(CN1CCN(c2cc3c(cc2F)c(=O)c(C(=O)O)cn3C2CC2)CC1)Nc1ccc(C(=O)/C=C/c2ccccc2)cc1 reportedmetric=growth recordedmeasurement=59.4
molecule=O=S(=O)(NCCCNc1cc(-c2cn(-c3ccccc3)nc2-c2cccc(O)c2)ccn1)c1cccc2ccccc12 reportedmetric=growth recordedmeasurement=47.3
molecule=COc1cc(-c2nc(-c3nc4ccccc4[nH]3)cc3c2[nH]c2ccccc23)cc(OC)c1OC reportedmetric=growth recordedmeasurement=45.1
molecule=COc1ccc(Cn2cc(COc3cc(/C=C/C(=O)c4cc(OC)c(OC)c(OC)c4)ccc3OC)nn2)cc1 reportedmetric=growth recordedmeasurement=19.2
molecule=Cn1c(-c2nonc2NC(=O)c2ccc(F)cc2)nc2ccccc21 reportedmetric=growth recordedmeasurement=120
molecule=COc1cccc(-n2cc(-c3nc(Cl)c4ccccc4n3)nn2)c1 reportedmetric=growth recordedmeasurement=125
molecule=CN(C)c1ccc(/C=C\N=Nc2ccc(Br)cc2)cc1 reportedmetric=growth recordedmeasurement=95.1
molecule=CCCCCCCCCCC/C=C\C[C@H](O)C/C=C1/C(=O)C=C[C@@H]1C/C=C\CCCC(=O)OC reportedmetric=growth recordedmeasurement=-16.1
